- Assay Protocol: melting temperature; fluorescence melt of hairpins on a sequencing array, two-state fit, raised by 9.35 °C to match UV melts
- Experimental Conditions: sodium 0.088 M
Property Measured: Tm

As a guide, the following entries are already answered.
Sequence Data: GAAACAGGAAACTGTTCC (.(((((....))))).)
Property Measured: Tm
Measured Result: 35.3 °C

Sequence Data: GTACGTCGAAAGACATAC (((.(((....))).)))
Property Measured: Tm
Measured Result: 38.4 °C

Sequence Data: GATCACGAGCGTGATC ((((((....))))))
Property Measured: Tm
Measured Result: 59.1 °C

Sequence Data: GTTTTCGGAAACGAAAAC (((((((....)))))))
Property Measured: Tm
Measured Result: 58.5 °C

Sequence Data: GTATACACGAAAGTGTAC (((..(((....))))))
Property Measured: Tm
Measured Result: 31.1 °C

Sequence Data: GCCAGCGAAAGCTCGGC ((((((....))).)))
Property Measured: Tm
Measured Result: 60.8 °C

Sequence Data: GCGAGGCGAAAGCCTGGC ((.((((....)))).))
Property Measured: Tm
Measured Result: 66.5 °C

Sequence Data: GCGCACGAAAGTGGCCGC ((((((....)))..)))
Property Measured: Tm
Measured Result: 54.1 °C

Sequence Data: GCAACCGAAAGGTTTGC ((((((....))).)))
Property Measured: Tm
Measured Result: 55.7 °C

Sequence Data: GCAGTGCGAAAGCACAGC ((.((((....)))).))
Property Measured: Tm
Measured Result: 68.2 °C

Record Tm per entry; entries follow.
1. GATCATTCGATGATC ((((((...))))))
2. GTTGCTGGAAACAGCAGC (.(((((....))))).)
3. GGAGCGGGAAACTGCTCC (((((.(....).)))))
4. GCCTCCCGAAAGGGGGC (((.(((....))))))
5. GATCTGGAACCAGATC ((((((....))))))

["47.2 °C", "54.5 °C", "60.9 °C", "67.7 °C", "53.9 °C"]

====

- Assay Protocol: melting temperature; fluorescence melt of hairpins on a sequencing array, two-state fit, raised by 9.35 °C to match UV melts
- Experimental Conditions: sodium 0.088 M
// N strictly below 50 °C in Tm; Y otherwise

Please review the entries below; each comes with its answer.
Sequence Data: GATCCGATATCGGATC ((((((....))))))
Class Name: Y

Sequence Data: GGAAGTGGAAACACTCCC ((.((((....)))).))
Class Name: N

# input for lookup
API: above_or_equal(metric=Tm, cutoff=50 °C) for item GTCTTAGGAAACTAAGGC (.(((((....))))).) N

====

- Assay Protocol: folding enthalpy; higher = less favourable; fluorescence melt of hairpins on a sequencing array, two-state fit
- Experimental Conditions: sodium 0.088 M
Property Measured: folding enthalpy (kcal/mol)
Numbers only, in kcal/mol.

Examples with their reported folding enthalpy follow.
Sequence Data: GAGCGGACGAAAGTCCTC (((..(((....))))))
folding enthalpy (kcal/mol): -8.32
//
Sequence Data: GACTGCGGAAACGCAATC ((.((((....)))).))
folding enthalpy (kcal/mol): -15.4
//
Sequence Data: GATCATGAGAATGATC ((((((....))))))
folding enthalpy (kcal/mol): -36.5

# batch size: 4; output folding enthalpy per entry
1. GATCTCGCGAAAGCGATC (((..(((....))))))
2. GCGTCCGGAAACGAACGC ((((.((....)).))))
3. GATGCCGAAAGGCGCATC ((((((....)))..)))
4. GTTGCTGGAAACAGCAGC (.(((((....))))).)

[-5.91, -42.8, -9.01, -26.3]

folding enthalpy lookup needed for GCCATCGAAAGATGGGGC ((((((....)))..))) , thanks. -12.8
